- experimentSummary: qHTS assay to identify small molecule agonists of the estrogen receptor beta (ER-beta) signaling pathway - cell viability counter screen (AID 1259380); further: nearly all actives have a fitted effect of over 30% in size
- particulars: ER-beta-bla HEK293T viability, CellTiter-Glo luminescence, 16 h; series mostly up to 92.4 µM
- Excerpt: National Center for Advancing Translational Sciences [NCATS] NIH Chemical Genomics Center [NCGC] U.S. Environmental Protection Agency [EPA] National Institutes of Environmental Health Sciences [NIEHS] National Toxicology Program [NTP] U.S. Food and Drug Administration [FDA] Estrogen receptor (ER), a nuclear hormone receptor, plays an important role in development, metabolic homeostasis and reproduction. […]
Results filed as inconclusive are left out. The source made the active and inactive calls. The call rests on the fitted dose curve; in most records, active means well fitted cell-killing curve with a large enough effect in the repeat runs; inconclusive means weak or mixed curves, or effect the other way; inactive means flat fitted curve, though single readings scatter.
Mark one answer only. Choices: t (active), f (inactive)

Problem: Lab log entry: ClCc1cccc(Cl)c1 — outcome as called in the assay?
Result: f

Problem: Lab log entry: O=C(CBr)c1ccccc1 — outcome as called in the assay?
Result: f

Problem: Lab log entry: O=NN1CCNCC1 — outcome as called in the assay?
Result: f

----------
- experimentSummary: qHTS RealTime-Glo MT Cell Viability Assay in HEK293 cells - 16 hour (AID 1224872); further: nearly all actives have a fitted effect of over 50% in size
- particulars: RealTime-Glo luminescence; series mostly up to 76.8 µM
Inconclusive results are not listed. Activity calls are given as the source filed them. The call rests on the fitted dose curve; in most records, active means well fitted cell-killing curve with a large enough effect in the repeat runs; inconclusive means weak or mixed curves, or effect the other way; inactive means flat fitted curve, though single readings scatter.
Mark one answer only. Choices: active, inactive

Take a look at these entries with their results.
Cc1ccc2ccccc2c1: inactive
Clc1cc(Cl)c(Cl)c(Cl)c1: inactive
Cl/C=C\Cl: inactive
O=C1c2ccccc2C(=O)C1C(=O)C(c1ccccc1)c1ccccc1: inactive
ClCC(Br)CBr (stereo not given): inactive

Problem: Lab log entry: Cc1ccc(-c2c(Cl)nc(C#N)n2S(=O)(=O)N(C)C)cc1 — outcome as called in the assay?
Result: inactive

Problem: Lab log entry: CCOP(=O)(OCC)SCCSCC — outcome as called in the assay?
Result: inactive

Problem: Lab log entry: O=NN1CCCCCC1 — outcome as called in the assay?
Result: inactive

Problem: Lab log entry: IC(I)=C(I)I — outcome as called in the assay?
Result: active

Problem: Lab log entry: N#Cc1ccc(Cl)cc1 — outcome as called in the assay?
Result: inactive

Problem: Lab log entry: CCOP(=S)(Oc1ccc([N+](=O)[O-])cc1)c1ccccc1 (stereo not given) — outcome as called in the assay?
Result: inactive

Problem: Lab log entry: O=C(NCc1cccnc1)Nc1ccc([N+](=O)[O-])cc1 — outcome as called in the assay?
Result: active

Problem: Lab log entry: O=C(CBr)c1ccccc1 — outcome as called in the assay?
Result: inactive

Problem: Lab log entry: CCn1cc[n+](C)c1 — outcome as called in the assay?
Result: inactive

Problem: Lab log entry: ClC=C(Cl)Cl — outcome as called in the assay?
Result: inactive

----------
- experimentSummary: qHTS assay to identify small molecule agonists of the TGF-beta/Smad signaling pathway - cell viability counter screen (AID 1346829); further: top concentration of the series differs between compounds; nearly all actives have a fitted effect of over 45% in size
- particulars: SBE-bla HEK293T viability, CellTiter-Glo luminescence, 5 h; series mostly up to 76.8 µM
Results filed as inconclusive are left out. Active and inactive are the calls of the source. The call rests on the fitted dose curve; in most records, active means well fitted cell-killing curve with a large enough effect in the repeat runs; inconclusive means weak or mixed curves, or effect the other way; inactive means flat fitted curve, though single readings scatter.
Mark one answer only. Choices: y for active, n for inactive

O=C1CN=C(c2ccccc2)c2cc(Cl)ccc2N1CC1CC1: n

Problem: Lab log entry: CC1(C)CCC(Cc2ccc(Cl)cc2)C1(O)Cn1cncn1 (centres undefined) — outcome as called in the assay?
Result: n

Problem: Lab log entry: O=C(Nc1ccccc1)Nc1ccnc(Cl)c1 — outcome as called in the assay?
Result: n

Problem: Lab log entry: CCCN(CC1CC1)c1c([N+](=O)[O-])cc(C(F)(F)F)cc1[N+](=O)[O-] — outcome as called in the assay?
Result: n

Problem: Lab log entry: OCCCBr — outcome as called in the assay?
Result: n

Problem: Lab log entry: COC(=O)C(Cl)C(=O)OC — outcome as called in the assay?
Result: n

Problem: Lab log entry: Clc1cc(Cl)c(Cl)c(Cl)c1 — outcome as called in the assay?
Result: n

Problem: Lab log entry: CCCCCCCCCC(=O)O[C@H]1CC[C@H]2[C@@H]3CCC4=CC(=O)CC[C@@H]4[C@H]3CC[C@]12C — outcome as called in the assay?
Result: n

Problem: Lab log entry: COc1cc(CC(C)N)cc2c1OCO2 (centres undefined) — outcome as called in the assay?
Result: n
